The origin of these recorded values is paper PMC12040169.

Procedure Text: in vitro
Measurement Context: human, hela cells, % viability

- Compound: "COc1cccc(CC(=O)NCC(c2cccs2)N2CCOCC2)c1 (centres unmarked)"
  viability at 28.5 h, 10 µM: "95.9%"
- Compound: "O=C(COc1ccccc1[N+](=O)[O-])Nc1ccc(Cl)c(-c2nc3ncccc3o2)c1"
  viability at 28.5 h, 10 µM: "88.8%"
- Compound: "CCNS(=O)(=O)c1ccc(CCC(=O)Nc2ccc3c(c2)OCO3)cc1"
  viability at 28.5 h, 10 µM: "101%"
- Compound: "N#Cc1cnc2c(-c3ccccc3)c(Cc3ccccc3)nn2c1N"
  viability at 28.5 h, 10 µM: "91.8%"
- Compound: "CCN(CC)CCN(Cc1ccc2c(c1)OCO2)C(=O)Nc1cccc(NC(C)=O)c1"
  viability at 28.5 h, 10 µM: "108%"
